# measurement-notes: Clearance in Sprague-Dawley rat at 8.6 mg/kg, po or 0.5 mg/kg, iv
# Format: ADME, organism-based
# condition-notes: in vivo
measure-name: clearance

Query string: Any idea what its clearance is? The molecule is "Cc1cccc2c1c(=O)n(C[C@H]1CC[C@H](C(=O)O)CC1)c(=O)n2Cc1cccc(C(F)(F)F)c1C#N"
Result string: 3.48 mL/min/kg

====

# measurement-notes: Clearance in Sprague-Dawley rat at 10 mg/kg, po or 0.5 mg/kg, iv
# Assay type: ADME, organism-based
# condition-notes: in vivo
measure-name: clearance (mL/min/kg)
Quick note: give the figure in mL/min/kg, leave out the unit.

Query string: Return reported clearance; argument: "N#Cc1ccccc1Cn1c(=O)n(C[C@H]2CC[C@H](C(=O)Nc3ccncc3)CC2)c(=O)c2ccccc21"
Result string: 91.2

====

# measurement-notes: Volume of distribution in Sprague-Dawley rat at 8.6 mg/kg, po or 0.5 mg/kg, iv
# Type: ADME, organism-based
# condition-notes: in vivo
measure-name: Vd (L/kg)
Numeric answer only, unit L/kg assumed.

Query string: If you can, please state the reported Vd value of "Cc1cccc2c1c(=O)n(C[C@H]1CC[C@H](C(=O)O)CC1)c(=O)n2Cc1cccc(C(F)(F)F)c1C#N" .
Result string: 0.97

====

# measurement-notes: Volume of distribution in Sprague-Dawley rat at 5 mg/kg, po or 2 mg/kg, iv
# Format: ADME, organism-based
# condition-notes: in vivo
measure-name: Vd (L/kg)
Entry rule: numbers only, all in L/kg.

Query string: Look up Vd for this compound: "N#Cc1c(Cn2c(=O)n(C[C@H]3CC[C@H](C(=O)O)CC3)c(=O)c3ccccc32)cccc1C(F)(F)F"
Result string: 0.81

====

# measurement-notes: Half life in Sprague-Dawley rat at 0.5 mg/kg, iv
# Type: ADME, organism-based
# condition-notes: in vivo
measure-name: half-life
Quick note: unit goes after the number.

Query string: Need half-life of "Cc1cccc2c1c(=O)n(C[C@H]1CC[C@H](C(=O)Nc3ccncc3)CC1)c(=O)n2Cc1cccc(Cl)c1C#N" , thanks.
Result string: 37.2 min

====

# target-or-system: Cytochrome P450 2C19 (Homo sapiens)
# Sequence (P33261 whole entry): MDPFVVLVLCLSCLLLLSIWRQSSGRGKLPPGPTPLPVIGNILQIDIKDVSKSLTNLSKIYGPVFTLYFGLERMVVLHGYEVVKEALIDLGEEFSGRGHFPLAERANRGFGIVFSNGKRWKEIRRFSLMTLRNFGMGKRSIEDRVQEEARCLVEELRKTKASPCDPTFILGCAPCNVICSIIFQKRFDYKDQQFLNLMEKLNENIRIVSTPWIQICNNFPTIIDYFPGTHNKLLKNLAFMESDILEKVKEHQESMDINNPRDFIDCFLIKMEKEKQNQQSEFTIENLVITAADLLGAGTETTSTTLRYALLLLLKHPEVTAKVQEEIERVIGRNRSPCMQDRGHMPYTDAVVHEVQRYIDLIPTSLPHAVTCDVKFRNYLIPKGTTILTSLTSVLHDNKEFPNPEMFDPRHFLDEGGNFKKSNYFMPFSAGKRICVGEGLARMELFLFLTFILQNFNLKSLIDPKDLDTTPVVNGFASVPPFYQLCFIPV
measure-name: IC50 (µM)
Please state the figure in µM; there is no need to write the unit.

Query string: Provide value of IC50 for this record tested with Cytochrome P450 2C19 (Homo sapiens): "Cc1cccc2c1c(=O)n(C[C@H]1CC[C@H](C(=O)O)CC1)c(=O)n2Cc1cccc(C(F)(F)F)c1C#N"
Result string: 36

====

pIC50: −log10 of the molar value.
measure-name: pIC50

Query string: Please tell me: pIC50 of "Cc1cccc2c1c(=O)n(C[C@H]1CC[C@H](C(=O)O)CC1)c(=O)n2Cc1cccc(C(F)(F)F)c1C#N" , system Cytochrome P450 2D6 (Homo sapiens, UniProt P10635)?
Result string: < 4.00

====

# measurement-notes: Oral bioavailability in C57 mouse at 3 mg/kg
# Assay type: ADME, organism-based
# condition-notes: in vivo
measure-name: bioavailability (%)
Enter your answer as a number in %; do not include the unit.

Query string: Name the reported bioavailability value associated with the compound "Cc1cccc2c1c(=O)n(C[C@H]1CC[C@H](C(=O)O)CC1)c(=O)n2Cc1cccc(C(F)(F)F)c1C#N"
Result string: 37.1
